- TARGET_OR_SYSTEM: Hypoxanthine-guanine phosphoribosyltransferase (Mus musculus)
- MEASUREMENT_PROTOCOL: Inhibition of hypoxanthine phosphoribosyltransferase in mouse Ehrlich ascites tumor cells assessed as decrease in purine nucleotide biosynthesis using [14C]hypoxanthine as substrate at 100 uM incubated for 20 mins followed by substrate addition for 60 mins by thin layer chromatography
Measured inhibition accompanies every entry in the list below.
QUANTITY: inhibition (%)

O=C1c2ccccc2C(=O)c2[nH]ncc21
5
O=C1c2ccccc2C(=O)c2nn([C@@H]3O[C@H](CO)[C@@H](O)[C@H]3O)cc21
0
O=C1c2ccccc2C(=O)c2nn([C@@H]3O[C@H](CO)[C@@H](O)[C@H]3O)nc21
72
O=C1c2ccccc2C(=O)c2[nH]nnc21
1
O=C1c2ccccc2C(=O)c2[nH]cnc21
82
O=C1c2ccccc2C(=O)c2c1ncn2[C@@H]1O[C@H](CO)[C@@H](O)[C@H]1O
68
